- Tested on: caspase-3/7 activity in Hep3B cell line
- assay method text: One-step cellular caspase-3/7 activity assay
- Assay type: cell-based, human
- test context: 200 nM, 24 hours; 0 nM = 1.00
Could you please report measured Relative caspase-3/7 activity in Hep3B cell line for the items listed next?
Just the number.

Task: Input NC1CCC(Nc2nc(NCc3ccc(-c4ccoc4)cc3)c3ncn(C4CCCC4)c3n2)CC1 (stereo not shown) , output reported Relative caspase-3/7 activity in Hep3B cell line.
Result: 0.95

Task: Please report the measured Relative caspase-3/7 activity in Hep3B cell line for NC1CCC(Nc2nc(NCc3ccc(-c4cccs4)nc3)c3ncn(C4CCCC4)c3n2)CC1 (stereo not shown)
Result: 5.32

Task: Identify the reported Relative caspase-3/7 activity in Hep3B cell line for the following entry. NC1CCC(Nc2nc(NCc3ccc(-c4ccco4)nc3)c3ncn(C4CCCC4)c3n2)CC1 (stereo not shown)
Result: 3.60

Task: Check the records and state Relative caspase-3/7 activity in Hep3B cell line for COc1ccccc1-c1ccc(CNc2nc(NC3CCC(N)CC3)nc3c2ncn3C2CCCC2)cc1 (stereo not shown)
Result: 0.93

----------
- tested system: T1, CDK1/cyclin B (Homo sapiens, UniProt P06493)
- T1 construct: made in house; host or cells: Sf9 insect cells (baculovirus)
- T1 sequence (P06493 whole entry, species assumed): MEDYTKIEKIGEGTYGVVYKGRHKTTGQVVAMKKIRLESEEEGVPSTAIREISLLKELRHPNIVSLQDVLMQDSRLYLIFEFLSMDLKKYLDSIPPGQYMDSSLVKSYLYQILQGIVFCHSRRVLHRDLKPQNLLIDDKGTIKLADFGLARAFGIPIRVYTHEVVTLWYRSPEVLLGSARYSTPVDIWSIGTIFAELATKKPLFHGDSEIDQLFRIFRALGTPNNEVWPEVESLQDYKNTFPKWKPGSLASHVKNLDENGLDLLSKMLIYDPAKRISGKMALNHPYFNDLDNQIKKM
- T1 sequence (P14635 whole entry partner, species assumed): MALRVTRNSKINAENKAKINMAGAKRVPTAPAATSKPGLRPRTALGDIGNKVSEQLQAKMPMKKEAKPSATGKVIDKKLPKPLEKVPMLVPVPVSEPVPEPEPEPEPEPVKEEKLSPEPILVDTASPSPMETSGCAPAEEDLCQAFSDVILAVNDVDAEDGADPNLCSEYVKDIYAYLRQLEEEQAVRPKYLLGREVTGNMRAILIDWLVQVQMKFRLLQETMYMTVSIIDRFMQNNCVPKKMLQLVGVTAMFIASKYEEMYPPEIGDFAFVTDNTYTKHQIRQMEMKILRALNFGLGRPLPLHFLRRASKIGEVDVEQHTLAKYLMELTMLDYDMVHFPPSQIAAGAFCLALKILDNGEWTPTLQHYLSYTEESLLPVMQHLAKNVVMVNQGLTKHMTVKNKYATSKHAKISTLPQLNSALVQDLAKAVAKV
- assay method text: Kinase inhibition assay, recombinant kinase, [γ-33P]ATP
- Assay type: biochemical
- test context: Table 12; read-out: IC50, CDK1/cyklin B
- Description: CDK2/Cyclin E kinase was produced in Sf9 insect cells via baculoviral infection and purified on a NiNTA column (Qiagen). CDK5/p35, CDK7Cyclin H/MAT1 and CDK9/Cyclin T1 was purchased from ProQinase GmbH. […] The reactions were stopped by adding 5 μL of 3% aq H3PO4. Aliquots were spotted onto P-81 phosphocellulose (Whatman), washed 3× with 0.5% aq H3PO4 and finally air-dried. […]
metric name: IC50

Task: Consider the compound NC1CCC(Nc2nc(NCc3ccc(-c4ccco4)nc3)c3ncn(C4CCCC4)c3n2)CC1 (stereo not shown) [BP14] . State its measured IC50.
Result: 50 nM

----------
- tested system: T1, CDK1/cyclin B (Homo sapiens, UniProt P06493)
- T1 construct: made in house; host or cells: Sf9 insect cells (baculovirus)
- assay method text: Kinase inhibition assay, recombinant kinase, [γ-33P]ATP
- Type: biochemical
- test context: read-out: Kinase inhibition IC50, CDK1
- Method: CDK2/Cyclin E kinase was produced in Sf9 insect cells via baculoviral infection and purified on a NiNTA column (Qiagen). CDK5/p35, CDK7Cyclin H/MAT1 and CDK9/Cyclin T1 was purchased from ProQinase GmbH. […] The reactions were stopped by adding 5 μL of 3% aq H3PO4. Aliquots were spotted onto P-81 phosphocellulose (Whatman), washed 3× with 0.5% aq H3PO4 and finally air-dried. […]
In plain terms, low IC50, meaning strictly below 100 nM, gives fulfilled, and everything else gives not fulfilled.

Task: Please let me know if NC1CCC(Nc2nc(NCc3ccc(-c4ccccc4O)nc3)c3ncn(C4CCCC4)c3n2)CC1 (stereo not drawn) shows IC50 below 100 nM.
Result: fulfilled

Task: Here's an entry: NC1CCC(Nc2nc(NCc3ccc(-c4ccco4)cc3)c3ncn(C4CCCC4)c3n2)CC1 (stereo not drawn) . Is its IC50 below 100 nM?
Result: not fulfilled

Task: Given the entry NC1CCC(Nc2nc(NCc3ccc(-c4ccco4)nc3)c3ncn(C4CCCC4)c3n2)CC1 (stereo not drawn) , would its reported IC50 be below 100 nM?
Result: fulfilled

Task: Quick check: does NC1CCC(Nc2nc(NCc3ccc(-c4cccs4)nc3)c3ncn(C4CCCC4)c3n2)CC1 (stereo not drawn) have IC50 under 100 nM?
Result: fulfilled

Task: A record lists NC1CCC(Nc2nc(NCc3ccc(-c4ccsc4)cc3)c3ncn(C4CCCC4)c3n2)CC1 (stereo not drawn) . Is its IC50 below 100 nM?
Result: not fulfilled

Task: Check if IC50 falls below 100 nM for Nc1ccccc1-c1ccc(CNc2nc(NC3CCC(N)CC3)nc3c2ncn3C2CCCC2)cc1 (stereo not drawn) .
Result: not fulfilled

Task: Record NC1CCC(Nc2nc(NCc3ccc(-c4cccc(F)c4)cc3)c3ncn(C4CCCC4)c3n2)CC1 (stereo not drawn) : is its IC50 strictly below 100 nM?
Result: not fulfilled

Task: In plain terms, does NC1CCC(Nc2nc(NCc3ccc(-c4ccsc4)nc3)c3ncn(C4CCCC4)c3n2)CC1 (stereo not drawn) come in under 100 nM for IC50?
Result: not fulfilled

Task: Find out if reported IC50 for NC1CCC(Nc2nc(NCc3ccc(-c4cccc(F)c4)nc3)c3ncn(C4CCCC4)c3n2)CC1 (stereo not drawn) is less than 100 nM
Result: fulfilled
